Target: HLA-A*02:01 (Homo sapiens, UniProt P04439, D140Y/D185E/D98H/E176V/E277Q/G131W/G231S/I119V/I121R/I166T/I218V/L300P/L318F/N151K/N90K/P208A/P217A/Q86G/Q94H/R138H/R169H/T345S)
Assay: MHC binding assay: UV-ligand exchange with ELISA detection of β2m of stabilized MHC complexes
Settings: binding to HLA-A*02:01
Excerpt: Candidate peptides for T cell based therapies according to the present invention were further tested for their MHC binding capacity (affinity). The individual peptide-MHC complexes were produced by UV-ligand exchange, where a UV-sensitive peptide is cleaved upon UV-irradiation, and exchanged with the peptide of interest as analyzed. Only peptide candidates that can effectively bind and stabilize the peptide-receptive MHC molecules prevent dissociation of the MHC complexes. […]
endpointLabel: Peptide exchange (MHC class I binding score, peptide exchange yield)

substance="124 (SLITDLQTI; listed as Homo sapiens) [compound 124]" observedresult="+++ (≥50 = +++)"
substance="3 (VLAEIDPKQLV; listed as Homo sapiens) [compound 3]" observedresult="+++ (≥50 = +++)"
substance="69 (KLFDRSVDL; listed as Homo sapiens) [compound 69]" observedresult="++ (≥20% = ++)"
substance="51 (ILDEAGVKYFL; listed as Homo sapiens) [compound 51]" observedresult="+++ (≥50 = +++)"
substance="87 (LLQNNLPAV; listed as Homo sapiens) [compound 87]" observedresult="++++ (≥75% = ++++)"
substance="112 (LLLPGVIKTV; listed as Homo sapiens) [compound 112]" observedresult="+++ (≥50 = +++)"
substance="118 (KLPSFLANV; listed as Homo sapiens) [compound 118]" observedresult="+++ (≥50 = +++)"
substance="12 (MLFEGLDLVSA; listed as Homo sapiens) [compound 12]" observedresult="+++ (≥50 = +++)"
substance="49 (RLALNTPKV; listed as Homo sapiens) [compound 49]" observedresult="++ (≥20% = ++)"
substance="103 (SLLEYQMLV; listed as Homo sapiens) [compound 103]" observedresult="++++ (≥75% = ++++)"
substance="84 (KMFENEFLL; listed as Homo sapiens) [compound 84]" observedresult="+++ (≥50 = +++)"
substance="42 (GLLEDERALQL; listed as Homo sapiens) [compound 42]" observedresult="+++ (≥50 = +++)"
substance="62 (VMLPIGAVVMV; listed as Homo sapiens) [compound 62]" observedresult="+++ (≥50 = +++)"
substance="20 (MLDEILLQL; listed as Homo sapiens) [compound 20]" observedresult="+++ (≥50 = +++)"
substance="122 (SMMPDELLTSL; listed as Homo sapiens) [compound 122]" observedresult="+++ (≥50 = +++)"
substance="1 (AMLEEVNYI; listed as Homo sapiens) [compound 1]" observedresult="+++ (≥50 = +++)"
substance="28 (ILVSQLEQL; listed as Homo sapiens) [compound 28]" observedresult="++++ (≥75% = ++++)"
substance="95 (ALYSKGILL; listed as Homo sapiens) [compound 95]" observedresult="++++ (≥75% = ++++)"
substance="56 (SLFSQMGSQYEL; listed as Homo sapiens) [compound 56]" observedresult="+++ (≥50 = +++)"
substance="83 (KLLEIDIDGV; listed as Homo sapiens) [compound 83]" observedresult="+++ (≥50 = +++)"
substance="39 (GLDPTQFRV; listed as Homo sapiens) [compound 39]" observedresult="+++ (≥50 = +++)"
substance="101 (AMNSQILEV; listed as Homo sapiens) [compound 101]" observedresult="+++ (≥50 = +++)"
substance="7 (GLLGDIAIHL; listed as Homo sapiens) [compound 7]" observedresult="+++ (≥50 = +++)"
substance="104 (TLIQFTVKL; listed as Homo sapiens) [compound 104]" observedresult="+++ (≥50 = +++)"

###

Target: HLA-A*02:01 (Homo sapiens, UniProt P04439, D140Y/D185E/D98H/E176V/E277Q/G131W/G231S/I119V/I121R/I166T/I218V/L300P/L318F/N151K/N90K/P208A/P217A/Q86G/Q94H/R138H/R169H/T345S)
Experiment: MHC binding assay: UV-ligand exchange with ELISA detection of β2m of stabilized MHC complexes
Conditions: binding to HLA-A*02:01
endpointLabel: Peptide exchange (MHC class I binding score, peptide exchange yield)

substance="16 (VILDLPLVI; listed as Homo sapiens) [compound 16]" observedresult="+++ (≥50 = +++)"
substance="86 (KVIDYVPGI; listed as Homo sapiens) [compound 86]" observedresult="+++ (≥50 = +++)"
substance="55 (LLIADNPQL; listed as Homo sapiens) [compound 55]" observedresult="++++ (≥75% = ++++)"
substance="73 (SLSSYTPDV; listed as Homo sapiens) [compound 73]" observedresult="+++ (≥50 = +++)"
substance="117 (FLLDSAPLNV; listed as Homo sapiens) [compound 117]" observedresult="++++ (≥75% = ++++)"
substance="68 (FLFPVYPLI; listed as Homo sapiens) [compound 68]" observedresult="+++ (≥50 = +++)"
substance="14 (ILIETKLVL; listed as Homo sapiens) [compound 14]" observedresult="+++ (≥50 = +++)"
substance="91 (KLQDGVHII; listed as Homo sapiens) [compound 91]" observedresult="+++ (≥50 = +++)"
substance="65 (VMYDLITEL; listed as Homo sapiens) [compound 65]" observedresult="+++ (≥50 = +++)"
